Biological target: IRE1α (Homo sapiens)
Sequence (O75460 468-977 limits assumed): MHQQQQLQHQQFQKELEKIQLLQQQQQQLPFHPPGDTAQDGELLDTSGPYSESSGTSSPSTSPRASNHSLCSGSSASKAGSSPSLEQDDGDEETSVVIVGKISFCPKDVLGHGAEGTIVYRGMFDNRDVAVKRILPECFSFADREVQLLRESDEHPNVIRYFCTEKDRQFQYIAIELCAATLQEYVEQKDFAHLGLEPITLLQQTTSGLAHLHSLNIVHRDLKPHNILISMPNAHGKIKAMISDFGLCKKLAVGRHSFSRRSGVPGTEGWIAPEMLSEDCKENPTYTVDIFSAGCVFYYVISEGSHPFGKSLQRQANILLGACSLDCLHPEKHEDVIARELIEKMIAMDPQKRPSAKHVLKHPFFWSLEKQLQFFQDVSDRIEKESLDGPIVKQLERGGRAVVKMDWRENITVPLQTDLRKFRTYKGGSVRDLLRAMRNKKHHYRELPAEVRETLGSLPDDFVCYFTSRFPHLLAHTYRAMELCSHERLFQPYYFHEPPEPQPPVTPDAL
Assay: In vitro FRET assay (XBP1 RNA probe cleavage by IRE1α)
Type: biochemical
Parameters: purchased SignalChem
Details: SignalChem IRE1α protein 2 nM
Where a name gives a salt, the structure may show the parent alone.
parameter: EC50

- compound: "Cc1cc(-c2cc(NC(=O)Nc3ccc(CN4CCN(C)CC4)c(C(F)(F)F)c3)nn2C)cc2cnc(N)nc12"
  resultValue: "5 to 50 nM"
- compound: "CN1CCN(Cc2ccc(NC(=O)Nc3cc(-c4ccc5nc(NC6CCCCC6)ncc5c4)n(C)n3)cc2C(F)(F)F)CC1"
  resultValue: "> 100 nM"
- compound: "CN1CCN(Cc2ccc(NC(=O)Nc3cc(-c4ccc5cc(NC6CCCCC6)ncc5c4)n(C)n3)cc2C(F)(F)F)CC1 [4; TFA]"
  resultValue: "> 100 nM"
- compound: "CN1CCN(Cc2ccc(NC(=O)Nc3cc(-c4ccc5nc(NC6CCNCC6)ncc5c4)n(C)n3)cc2C(F)(F)F)CC1 [2; TFA]"
  resultValue: "≤ 5 nM"
- compound: "CCc1cc(-c2cc(NC(=O)Nc3ccc(CN4CCN(C)CC4)c(C(F)(F)F)c3)nn2C)cc2cnc(N[C@H]3CC[C@H](N)CC3)nc12"
  resultValue: "≤ 5 nM"
